# Test system: BT474 [human breast carcinoma, overexpressing HER2 (ErbB2)]
# PROTOCOL_DETAILS: In vitro tumor cell proliferation assay (Cell Titer-Glo luminescent cell viability), BT474 cells
# Type: cell-based
# COND: BT-474, 72 h, 72 hours of drug exposure, Cell Titer-Glo readout, read-out: IC50, anti-proliferative activity in BT474 cells
ASSAY_ENDPOINT: IC50

Which IC50 value belongs to CCN1CCN(C(=O)[C@@H](O)[C@H](O)c2ccc3c(c2)sc2ncnc(Nc4ccc(OCc5cccc(F)c5)c(Cl)c4)c23)CC1 ?
≤ 5 µM

Which IC50 value belongs to Fc1cccc(COc2ccc(Nc3ncnc4sc5cc(CCn6ccnc6)ccc5c34)cc2Cl)c1 ?
≤ 5 µM

Which IC50 value belongs to OCCc1ccc2c(c1)sc1ncnc(Nc3ccc4c(ccn4Cc4ccccc4)c3)c12 ?
≤ 0.5 µM

Which IC50 value belongs to OCCc1ccc2c(c1)sc1ncnc(Nc3ccc(OCc4cccc(F)c4)c(Cl)c3)c12 ?
≤ 5 µM

Which IC50 value belongs to O=C(Cc1ccc2c(c1)sc1ncnc(Nc3ccc(OCc4cscn4)c(Cl)c3)c12)NCCOCCO ?
≤ 5 µM

Which IC50 value belongs to O=C(Cc1ccc2c(c1)sc1ncnc(Nc3ccc(OCc4ccccn4)c(Cl)c3)c12)NCCOCCO ?
≤ 5 µM

Which IC50 value belongs to Fc1cccc(COc2ccc(Nc3ncnc4sc5cc(CCN6CCNCC6)ccc5c34)cc2Cl)c1 ?
≤ 0.5 µM

Which IC50 value belongs to Fc1cccc(COc2ccc(Nc3ncnc4sc5cc(Br)ccc5c34)cc2Cl)c1 ?
≤ 5 µM

----------
# System: BT474 [human breast carcinoma, overexpressing HER2 (ErbB2)]
# PROTOCOL_DETAILS: In vitro tumor cell proliferation assay (Cell Titer-Glo luminescent cell viability), BT474 cells
# Type: cell-based
# COND: BT-474, 72 h, 72 hours of drug exposure, Cell Titer-Glo readout, read-out: IC50, anti-proliferative activity in BT474 cells
Counter-ions that a name gives are not always drawn.
ASSAY_ENDPOINT: IC50

Which IC50 value belongs to Fc1cccc(Cn2ncc3cc(Nc4ncnc5sc6cc(N7CCNCC7)ccc6c45)ccc32)c1 ?
≤ 500 nM

Which IC50 value belongs to O=C(Cc1ccc2c(c1)sc1ncnc(Nc3ccc(OCc4cscn4)c(Cl)c3)c12)NCCO ?
≤ 5000 nM

Which IC50 value belongs to Clc1cc(Nc2ncnc3sc4cc(CCN5CCOCC5)ccc4c23)ccc1OCc1ccccn1 ?
≤ 500 nM

Which IC50 value belongs to OCCN(CCO)CCc1ccc2c(c1)sc1ncnc(Nc3ccc(OCc4cccc(F)c4)c(Cl)c3)c12 ?
≤ 500 nM

Which IC50 value belongs to Clc1cc(Nc2ncnc3sc4cc(NCCN5CCOCC5)ccc4c23)ccc1OCc1ccccn1 [Example 78, trifluoroacetate] ?
≤ 5000 nM

Which IC50 value belongs to Fc1cccc(COc2ccc(Nc3ncnc4sc5cc(CCN6CCCC6)ccc5c34)cc2Cl)c1 ?
≤ 500 nM

Which IC50 value belongs to CS(=O)(=O)CCNC(=O)CCc1ccc2c(c1)sc1ncnc(Nc3ccc(OCc4cccc(F)c4)c(Cl)c3)c12 ?
≤ 500 nM

Which IC50 value belongs to CS(=O)(=O)CCNC(=O)Cc1ccc2c(c1)sc1ncnc(Nc3ccc(OCc4ccccn4)c(Cl)c3)c12 ?
≤ 500 nM

----------
# Test system: BT474 [human breast carcinoma, overexpressing HER2 (ErbB2)]
# PROTOCOL_DETAILS: In vitro tumor cell proliferation assay (Cell Titer-Glo luminescent cell viability), BT474 cells
# Format: cell-based
# COND: BT-474, 72 h, 72 hours of drug exposure, Cell Titer-Glo readout, read-out: IC50, anti-proliferative activity in BT474 cells
pIC50: −log10 of the molar value.
ASSAY_ENDPOINT: pIC50

Which pIC50 value belongs to CN(C)[C@@H]1CCN(C(=O)Cc2ccc3c(c2)sc2ncnc(Nc4ccc(OCc5cscn5)c(Cl)c4)c23)C1 [Example 136] ?
≥ 6.30

Which pIC50 value belongs to CN1CCN(C(=O)Cc2ccc3c(c2)sc2ncnc(Nc4ccc(OCc5cscn5)c(Cl)c4)c23)CC1 [Example 138] ?
≥ 5.30

Which pIC50 value belongs to O=C(Cc1ccc2c(c1)sc1ncnc(Nc3ccc(OCc4cscn4)c(Cl)c3)c12)NCCN1CCOCC1 [Example 140] ?
≥ 5.30

Which pIC50 value belongs to O=C(Cc1ccc2c(c1)sc1ncnc(Nc3ccc(OCc4cscn4)c(Cl)c3)c12)NCCCN1CCOCC1 [Example 139] ?
≥ 5.30

Which pIC50 value belongs to CCOC(=O)Cc1ccc2c(c1)sc1ncnc(Nc3ccc(OCc4cscn4)c(Cl)c3)c12 [Example 134] ?
≥ 5.30

Which pIC50 value belongs to COCCN(CCOC)CCc1ccc2c(c1)sc1ncnc(Nc3ccc(OCc4cccc(F)c4)c(Cl)c3)c12 [Example 6] ?
≥ 6.30

Which pIC50 value belongs to CN(C)[C@H]1CCN(C(=O)C(O)C(O)c2ccc3c(c2)sc2ncnc(Nc4ccc(OCc5cccc(F)c5)c(Cl)c4)c23)C1 (stereo partly drawn) [Example 59] ?
≥ 5.30

Which pIC50 value belongs to C=Cc1ccc2c(c1)sc1ncnc(Nc3ccc4c(cnn4Cc4ccccn4)c3)c12 [Example 130] ?
≥ 6.30

Which pIC50 value belongs to OC[C@@H](O)[C@H](O)c1ccc2c(c1)sc1ncnc(Nc3ccc(OCc4cccc(F)c4)c(Cl)c3)c12 [Example 64] ?
≥ 6.30

Which pIC50 value belongs to O=C(O)CCc1ccc2c(c1)sc1ncnc(Nc3ccc(OCc4cccc(F)c4)c(Cl)c3)c12 [Example 65] ?
≥ 5.30

Which pIC50 value belongs to CCN1CCN(C(=O)C(O)C(O)c2ccc3c(c2)sc2ncnc(Nc4ccc(OCc5cccc(F)c5)c(Cl)c4)c23)CC1 (stereo not drawn) [Example 56] ?
≥ 5.30

Which pIC50 value belongs to OCCc1ccc2c(c1)sc1ncnc(Nc3ccc(OCc4ccccn4)c(Cl)c3)c12 [Example 82] ?
≥ 6.30

Which pIC50 value belongs to COCCN(CCOC)C(=O)Cc1ccc2c(c1)sc1ncnc(Nc3ccc(OCc4ccccn4)c(Cl)c3)c12 [Example 101] ?
≥ 5.30

Which pIC50 value belongs to OCCNCCc1ccc2c(c1)sc1ncnc(Nc3ccc(OCc4cccc(F)c4)c(Cl)c3)c12 [Example 22] ?
≥ 6.30

Which pIC50 value belongs to OCC(O)C(O)c1ccc2c(c1)sc1ncnc(Nc3ccc(OCc4cccc(F)c4)c(Cl)c3)c12 (stereo not drawn) [Example 62] ?
≥ 6.30

Which pIC50 value belongs to OC[C@@H](O)c1ccc2c(c1)sc1ncnc(Nc3ccc(OCc4ccccn4)c(Cl)c3)c12 [Example 74] ?
≥ 6.30

Which pIC50 value belongs to C=Cc1ccc2c(c1)sc1ncnc(Nc3ccc(OCc4ccccn4)c(Cl)c3)c12 [Example 72] ?
≥ 5.30

Which pIC50 value belongs to CCN1CCN(C(=O)/C=C/c2ccc3c(c2)sc2ncnc(Nc4ccc(OCc5cccc(F)c5)c(Cl)c4)c23)CC1 [Example 49] ?
≥ 5.30

Which pIC50 value belongs to OCC(O)c1ccc2c(c1)sc1ncnc(Nc3ccc(OCc4ccccn4)c(Cl)c3)c12 (racemic) [Example 73] ?
≥ 6.30

Which pIC50 value belongs to CN1CCN(CCc2ccc3c(c2)sc2ncnc(Nc4ccc5c(cnn5Cc5cccc(F)c5)c4)c23)CC1 [Example 128] ?
≥ 6.30

Which pIC50 value belongs to O=C(Cc1ccc2c(c1)sc1ncnc(Nc3ccc(OCc4ccccn4)c(Cl)c3)c12)N1CCOCC1 [Example 95] ?
≥ 5.30

Which pIC50 value belongs to CN1CCN(C(=O)/C=C/c2ccc3c(c2)sc2ncnc(Nc4ccc(OCc5cccc(F)c5)c(Cl)c4)c23)CC1 [Example 51] ?
≥ 5.30

Which pIC50 value belongs to Clc1cc(Nc2ncnc3sc4cc(Br)ccc4c23)ccc1OCc1ccccn1 [Example 71] ?
≥ 5.30

Which pIC50 value belongs to O=C(Cc1ccc2c(c1)sc1ncnc(Nc3ccc(OCc4ccccn4)c(Cl)c3)c12)N(CCO)CCO [Example 105] ?
≥ 5.30

Which pIC50 value belongs to CN(C)[C@H]1CCN(CCc2ccc3c(c2)sc2ncnc(Nc4ccc(OCc5cccc(F)c5)c(Cl)c4)c23)C1 [Example 24] ?
≥ 5.30

Which pIC50 value belongs to OC/C=C/c1ccc2c(c1)sc1ncnc(Nc3ccc(OCc4cccc(F)c4)c(Cl)c3)c12 [Example 61] ?
≥ 6.30

Which pIC50 value belongs to Fc1cccc(COc2ccc(Nc3ncnc4sc5cc(OCCN6CCOCC6)ccc5c34)cc2Cl)c1 [Example 38] ?
≥ 6.30

Which pIC50 value belongs to Fc1cccc(COc2ccc(Nc3ncnc4sc5cc(CCN6CCCCC6)ccc5c34)cc2Cl)c1 [Example 17] ?
≥ 6.30

Which pIC50 value belongs to CN(C)CCNC(=O)Cc1ccc2c(c1)sc1ncnc(Nc3ccc(OCc4cscn4)c(Cl)c3)c12 [Example 142] ?
≥ 6.30

Which pIC50 value belongs to CCOC(=O)C(C(=O)OCC)c1ccc2c(c1)sc1ncnc(Nc3ccc4c(cnn4Cc4cccc(F)c4)c3)c12 [Example 118] ?
≥ 5.30
